target_or_system: AEA-DA lipid probe targets in Neuro2a cells (Mus musculus)
measurement_setup: competitor 25 μM
Quick reference: SILAC ratio Stip1 of the listed items.
Answer as a number with no unit attached.

Look over these answered cases.
CN1CCN(C(=O)c2c(-c3ccccc3)c3cc([N+](=O)[O-])ccc3n2C)CC1 [KML110]: 1.6
C=CCN(C)CCCCCCOc1ccc(C(=O)c2ccc(Br)cc2)c(F)c1 [Ro 48-8071, reference compound]: 1.0
O=C(/C=C/c1cccnc1)NCCCCC1CCN(C(=O)c2ccccc2)CC1 [FK-866, reference compound]: 1.3

Next item in the queue.
Report SILAC ratio Stip1 for CN1CCN(C(=O)c2[nH]c3ccc([N+](=O)[O-])cc3c2-c2ccccc2)CC1 [MJN228] please.
1.3
